- System: UO-31 renal
- EXPERIMENT: NCI tumour cell line growth inhibition, 48 h
Where a SMILES comes first, the peptide text is derived from it. [ ]: non-standard residue; d: D form. The star is where a group is joined. ξ: configuration not given here. NMeF = CN[C@@H](Cc1ccccc1)C(=O)O; NMeV = CN[C@H](C(=O)O)C(C)C; ξNMeV = CNC(C(=O)O)C(C)C; Boc = CC(C)(C)OC(=O)*; OBn = c1ccc(CO*)cc1
MEASUREMENT_NAME: TGI

COMPOUND | VALUE
COc1ccc2c(c1)/c(=C/C#N)c1c3ccccc3[n+](C)n21 | 36.9 µM
Cc1cc(N2CCOCC2)nc(NCc2cc(Nc3ccnc4cc(Cl)ccc34)ccc2F)n1 | 3 µM
CCCCCCCCCCCCOC1C(COCCN2CCCCC2)OC2OC(C)(C)OC21 (stereo not given) | 3.22 µM
COC(=O)C(=O)C(C(=O)OC)C(=O)C(=O)Nc1c(Cl)cc([N+](=O)[O-])cc1Cl (stereo not given) | > 100 µM
CCC(c1ccccc1)c1cc(C(C)(C)C)cc(C(C)(C)C)c1O (stereo not given) | 32.3 µM

Please give the measured TGI for this compound: CC(=O)CC(=O)Nc1ccccc1C(F)(F)F
> 100 µM

For COc1ccc([I+]c2ccc(OC)cc2)cc1 then?
> 100 µM

For CC(C)C(C(=O)N(C)[C@H](C(=O)N1CCC[C@H]1C(=O)N(C)[C@@H](Cc1ccccc1)C(=O)OCc1ccccc1)C(C)C)N(C)C(=O)[C@@H](NC(=O)OC(C)(C)C)C(C)C (stereo not given in full) (Boc-V[ξNMeV][NMeV]P[NMeF]-OBn) then?
> 31.6 µM

For CCN(CC)C(=S)SS(C)(=O)=O then?
37.3 µM

For C=C1CCOC2(C(O)C(C)(O)CO)NC(=O)C1(O)NC2=O (stereo not given) then?
> 100 µM

###

- System: T-47D breast
- EXPERIMENT: NCI tumour cell line growth inhibition, 48 h
MEASUREMENT_NAME: TGI (µM)
Value expressed in µM; do not type the unit.

Recorded TGI, per entry:
SMILES_STR | MEASUREMENT_NAME | MEASURE_UNIT | VALUE
C=C(C)C(=O)Nc1ccc(-c2c(-c3ccc(Oc4nccc(C)n4)c(F)c3)c3c(N)ncnc3n2C)cc1 | TGI | µM | 35.5
CCc1c(C)c2cc(-n3c(-c4ccc(OC)cc4)csc3=N)c(O)c(C)c2oc1=O | TGI | µM | 4.24
COC(=O)CC1=C(C)/C(=C/c2[nH]c(-c3ccc[nH]3)cc2OC)N=C1C | TGI | µM | 1.52
Cn1cc2c3ccccc3nc-2c2ccccc21 | TGI | µM | 5.87

Now for a further compound.
Request: TGI, test system T-47D breast, entry O=S(=O)(/N=C(\NO)Nc1ccc(Cl)cc1)c1cc2ccccc2s1
84.2

###

This section presents compounds with their documented TGI values.
- Test system: RPMI-8226 leukemia
- EXPERIMENT: NCI tumour cell line growth inhibition, 48 h
Value expressed in µM; do not type the unit.

Recorded TGI, per entry:
COMPOUND | TARGET_ENTITY | MEASUREMENT_NAME | VALUE
COc1cccc(CCNc2c(C#N)c3n(c4ccccc4[n+]3C)c3ncccc23)c1 | RPMI-8226 leukemia | TGI | 6.59
CC[C@]12C=CCN3CC[C@@]4(c5cc(Br)c(OC)cc5N(C)[C@H]4[C@@](O)(C(=O)NC(Cc4c[nH]c5ccccc45)C(=O)OC)[C@@H]1O)[C@@H]32 (stereo partly drawn) | RPMI-8226 leukemia | TGI | 46.3
COc1ccc(-c2oc3cc(O)c(OC)c(O)c3c(=O)c2O)cc1 | RPMI-8226 leukemia | TGI | 31.5

Now for a further compound.
Request: TGI, test system RPMI-8226 leukemia, entry O=C(NCCNCCO)c1ccc(Nc2nc3ccccc3c3occc23)cc1
37.5

###

- Test system: A498 renal
- EXPERIMENT: NCI tumour cell line growth inhibition, 48 h
MEASUREMENT_NAME: TGI

Please give the measured TGI for this compound: COc1ccc2c(c1)/C(=N/OC(C)=O)c1c-2c(OC)nc2ccccc12
> 100 µM

For COc1ccc(N2C(=O)/C(=C/c3ccc(N(CCC#N)CCC#N)cc3)N=C2c2ccccc2)cc1 then?
> 100 µM

For O=C(CC(C(=O)c1cccs1)c1ccsc1)c1ccc(Cl)s1 (stereo unspecified) then?
> 100 µM

###

- Tested on: CAKI-1 renal
- EXPERIMENT: NCI tumour cell line growth inhibition, 48 h
MEASUREMENT_NAME: TGI (µM)
Value expressed in µM; do not type the unit.

COMPOUND | TGI (µM)
CSc1ccc(C(=O)/C=C/c2ccc(Cl)cc2Cl)cc1 | 92

Please give the measured TGI for this compound: Cn1c(I)c(C#C[Si](C)(C)C)c(=O)[nH]c1=O
9.58

For CN(C)CC1CCC/C(=C\c2ccc(OC(=O)/C=C/c3ccc(Cl)cc3)cc2)C1=O (stereo unspecified) then?
5.12

For O=C1Nc2ccc(Br)cc2/C1=N/N1C(=O)C(=O)N(C2CCCCC2)C1=S then?
12.3

For Cc1ccc(-c2nc3sc(C)cn3c2/C=C2\C(=O)Nc3ccc(Cl)cc32)cc1 then?
38.2

###

- Tested on: HCC-2998 colon
- EXPERIMENT: NCI tumour cell line growth inhibition, 48 h
MEASUREMENT_NAME: TGI (µM)
Value expressed in µM; do not type the unit.

COMPOUND | MEASURE_UNIT | TGI
O=C1C(Cl)=C(NCCCN(CCCNC2=C(Cl)C(=O)c3ccccc3C2=O)C2=C(Cl)C(=O)c3ccccc3C2=O)C(=O)c2ccccc21 | µM | 6.37
C(=N\Nc1ccc2ccccc2n1)/c1ccccn1 | µM | 1.14
CN(C)CC1CCC/C(=C\c2ccc(OC(=O)/C=C/c3ccc(Cl)cc3)cc2)C1=O (stereo not given) | µM | 13.1
Cc1[nH]c2cc([N+](=O)[O-])ccc2c1[N+](=O)[O-] | µM | 52.7
COc1ccc(-c2c(-c3ccc(C#N)c(F)c3)nc(N3CCC(N)CC3)n(C)c2=O)cc1F | µM | 26.7

Request: TGI, test system HCC-2998 colon, entry COc1ccc(C2=Nc3ccccc3N=C(SC)C2)cc1
74.4

For O=C1Nc2ccc(Cl)c(I)c2C1=O then?
27.7

For CSc1ccc(C(=O)/C=C/c2ccc(Cl)cc2Cl)cc1 then?
35.8

###

- Tested on: DMS 114 small cell lung
- EXPERIMENT: NCI tumour cell line growth inhibition, 48 h
MEASUREMENT_NAME: TGI (µM)
Value expressed in µM; do not type the unit.

Please give the measured TGI for this compound: Cc1ccc(S(=O)(=O)C2CC2(Cl)Cl)cc1 (stereo unspecified)
39.8

For CC(=O)Nc1ccc(/C=c2\sc3nnc(-c4cccnc4)n3c2=O)cc1 then?
32.4

For N#CC(/C(CCCC(=O)Nc1cccc([N+](=O)[O-])c1)=N\NC(=O)c1c(O)ccc2ccccc12)c1nc2ccccc2s1 (stereo unspecified) then?
34.5

###

- Tested on: MALME-3M melanoma
- EXPERIMENT: NCI tumour cell line growth inhibition, 48 h
MEASUREMENT_NAME: GI50

Recorded GI50, per entry:
COMPOUND | VALUE
CC(C)(C)[Si](C)(C)OC1[C@@H](COC(=O)NC(=O)CCl)O[C@@H](n2cnc3c(N)ncnc32)[C@H]1O[Si](C)(C)C(C)(C)C (some centres undefined) | 0.984 µM
CC1=C[C@@H]2c3c(c(O)c(O)c4oc5cc(O)cc(O)c5c(=O)c34)[C@@H](c3cc(O)c(O)c4oc5cc(O)cc(O)c5c(=O)c34)[C@@H]2C(C)(C)C1 | 8.53 µM
COc1ccc([I+]c2ccc(OC)cc2)cc1 | 13.8 µM

Now for a further compound.
Please give the measured GI50 for this compound: O=C1/C(=C/c2ccc([N+](=O)[O-])o2)Oc2ccc(Cl)cc21
2.1 µM

###

- System: SR leukemia
- EXPERIMENT: NCI tumour cell line growth inhibition, 48 h
MEASUREMENT_NAME: TGI (µM)
Value expressed in µM; do not type the unit.

Recorded TGI, per entry:
COMPOUND | TGI, µM
COC(=O)CC1=C(C)/C(=C/c2[nH]c(-c3ccc[nH]3)cc2OC)N=C1C | 0.677
COc1ccc(-c2c(-c3ccc(C#N)c(F)c3)nc(N3CCC(N)CC3)n(C)c2=O)cc1F | 34.6
CC(=O)c1c(C)c2cnc(Nc3ccc(N4CCNCC4)cn3)nc2n(C2CCCC2)c1=O | 20.7

Please give the measured TGI for this compound: Cn1c(I)c(C#C[Si](C)(C)C)c(=O)[nH]c1=O
5.82

For FC(F)(F)c1cccc(-c2[nH]ncc2-c2nnnn2-c2ccccc2)c1 then?
5.42

For C=C(C)C(=O)Nc1ccc(-c2c(-c3ccc(Oc4nccc(C)n4)c(F)c3)c3c(N)ncnc3n2C)cc1 then?
9.64

For CC(C)(C)[Si](C)(C)OC1[C@@H](COC(=O)NC(=O)CCl)O[C@@H](n2cnc3c(N)ncnc32)[C@H]1O[Si](C)(C)C(C)(C)C (stereo partly specified) then?
1.31

For COc1ccc2c(c1)-c1c(c3cc(OC)ccc3n(CCN(C)C)c1=O)C2=O then?
2.64

For CC1(C)C(=O)/C=C\C(=O)C(C)(C)C(=O)/C=C\C(=O)C(C)(C)C2=CC=C(O2)C(C)(C)C(=O)/C=C\C1=O then?
4.05
